Source: ChEMBL document CHEMBL5046305

experiment: Metabolic stability in human liver microsomes at 1 uM in presence of NADPH generating system by LC/MS/MS analysis; format: ADME, Microsome; details: read-out: Stability
endpoint name: microsomal CLint at 1 µM (µL/min/mg)
Field: numeric (µL/min/mg). Do not append units.

Reference set (5 entries):
>>> value_measured("COc1cc(C)[nH]c(=O)c1CN1CCN(C)c2c(Cl)cc(C(O)C3CCOCC3)c(Cl)c2C1=O (stereo not given)")
34
>>> value_measured("Cc1cc(C)c(CN2CCc3c(Cl)cc(-c4c(C)noc4C)c(Cl)c3C2=O)c(=O)[nH]1")
210
>>> value_measured("CCN(c1cc(Cl)c2c(c1Cl)C(=O)N(Cc1c(OC)cc(C)[nH]c1=O)CCN2C)C1CCOCC1")
181
>>> value_measured("COc1cc(C)[nH]c(=O)c1CN1CCN(C)c2c(Cl)cc(-c3c(C)noc3C)c(Cl)c2C1=O")
80
>>> value_measured("COc1cc(C)n(C)c(=O)c1CN1CCc2c(Cl)cc(-c3c(C)noc3C)c(Cl)c2C1=O")
117

-- ask Which microsomal CLint at 1 µM is reported for this compound? COc1cc(C)[nH]c(=O)c1CN1CCN(C)c2c(Cl)cc(OC(C)C)c(Cl)c2C1=O
-- reply 29

-- ask Next: Cc1noc(C)c1-c1cc(Cl)c2c(c1Cl)C(=O)N(Cc1c(C3CC3)cc(C)n(C)c1=O)CC2
-- reply 490

-- ask Param item: COc1cc(C)[nH]c(=O)c1CN1CCN(C)c2c(Cl)cc(C(C)C3CCOCC3)c(Cl)c2C1=O (stereo not given)
-- reply 206

-- ask Then this compound: COc1cc(C)[nH]c(=O)c1CN1CCN(C)c2ccc(-c3c(C)noc3C)c(Cl)c2C1=O
-- reply 9

----------
assay: Metabolic stability in mouse liver microsomes at 1 uM in presence of NADPH generating system by LC/MS/MS analysis; type: ADME, Microsome; settings: read-out: Stability
Quick list: microsomal CLint at 1 µM per entry.

>>> value_measured("CSc1cc(C)n(C)c(=O)c1CN1CCc2c(Cl)cc(-c3c(C)noc3C)c(Cl)c2C1=O")
"796 µL/min/mg"
>>> value_measured("Cc1cc(C)n(C)c(=O)c1CN1CCc2c(Cl)cc(-c3c(C)noc3C)c(Cl)c2C1=O")
"> 768 µL/min/mg"
>>> value_measured("CCc1cc(C)n(C)c(=O)c1CN1CCc2c(Cl)cc(-c3c(C)noc3C)c(Cl)c2C1=O")
"> 768 µL/min/mg"
>>> value_measured("COc1cc(C)[nH]c(=O)c1CN1CCN(C)c2c(Cl)cc(OC(C)C)c(Cl)c2C1=O")
"> 768 µL/min/mg"
>>> value_measured("CCN(c1cc(Cl)c2c(c1Cl)C(=O)N(Cc1c(OC)cc(C)[nH]c1=O)CCN2C)C1CCOCC1")
"> 768 µL/min/mg"

-- ask Data request, read-out microsomal CLint at 1 µM, for Cc1noc(C)c1-c1cc(Cl)c2c(c1Cl)C(=O)N(Cc1c(C3CC3)cc(C)n(C)c1=O)CC2
-- reply > 768 µL/min/mg

----------
assay: Apparent permeability across apical to basolateral side in MDCK-MDR1 cells at 1 to 10 uM measured after 1 hrs by LC/MS/MS analysis; format: ADME, cell-based, Canis lupus familiaris; details: dog, dose 1-10 µM
Papp A→B at 1 h, up to 10 µM values, listed per item

>>> value_measured("CSc1cc(C)[nH]c(=O)c1CN1CCN(C)c2c(Cl)cc(-c3c(C)noc3C)c(Cl)c2C1=O")
"< 0.1 ×10⁻⁶ cm/s"
>>> value_measured("COc1cc(C)[nH]c(=O)c1CN1CCNc2c(Cl)cc(-c3c(C)noc3C)c(Cl)c2C1=O")
"< 0.1 ×10⁻⁶ cm/s"

-- ask Look up Papp A→B at 1 h, up to 10 µM: COc1cc(C)[nH]c(=O)c1CN1CCN(C)c2ccc(-c3c(C)noc3C)c(Cl)c2C1=O
-- reply < 0.1 ×10⁻⁶ cm/s
